Reference source for all entries: PubChem BioAssay (NCI)

- Test system: NCI-H226 lung
- Run description: NCI-60 one-dose screen, 48 h
- Setup conditions: 10 µM unless noted
Compounds without any hit were thinned out: in the full panel of roughly 83,000, 20% have a hit. Calls of active or inactive are those of the source. Rule for the calls: active = growth percent below 10; inactive = the rest.
Possible outcomes: active, inactive

| Molecule | Answer label |
| --- | --- |
| Cc1sc(N=Nc2ccc(N(C)C)cc2)[n+]([O-])c1C | inactive |
| O=C(O)Cc1ccc2c(c1)Cc1cccnc1O2 | inactive |
| CC/C=C\C[C@H]1C/C=C2/C(=O)C(Cl)=C[C@@H]2C/C=C\CCCC(=O)O1 | active |
| O=c1oc2cc(OS(=O)(=O)c3ccc(F)cc3)ccc2c2c1CCCCC2 | inactive |
| COC1=CC(c2ccc[nH]2)=N/C1=C\c1[nH]c(C)c(C(=O)CCCCC(=O)Nc2ccccc2)c1C | inactive |
| O=C(CCl)NCCNc1nccc(Nc2ccc(S(=O)(=O)Nc3ccccn3)cc2)n1 | inactive |
| CN(C)C/C=C/C(=O)Nc1cc2c(Nc3cccc(Cl)c3F)ncnc2cc1OCCOC(F)F | inactive |
| CC[C@]1(O)C[C@@H]2CN(Cc3c([nH]c4ccccc34)[C@@](C(=O)OC)(c3cc4c(cc3OC)N(C)[C@H]3[C@@](O)(C(=O)OC)[C@H](OC(C)=O)[C@]5(CC)[C@@H]6C[C@@H]6CN6CC[C@]43[C@@H]65)C2)C1 | inactive |
| CCN(Cc1ccc(CN(CC)C(=O)C(Br)Br)cc1)C(=O)C(Br)Br | inactive |
| CCCCn1c(=O)c(C2CNC(=O)c3ccccc3N2)cc2ccccc21 (configuration not stated) | inactive |
| O=C(O)C(=Cc1c2ccccc2cc2ccccc12)C(=O)O | inactive |
| CC(=O)/C=C/c1cc2cc(Cl)ccc2[nH]c1=O | inactive |
| Nc1c(C(=O)Nc2cccc(Cl)c2Cl)sc2nc3c(cc12)C(=O)CCC3 | inactive |
| CCCCNC(=O)NS(=O)(=O)c1ccc(N2N=C(c3ccc(C)cc3C)CC2c2ccc(OC)cc2)cc1 (configuration not stated) | inactive |
| Cc1nc2sccn2c1-c1csc(Nc2ccccc2Cl)n1 | inactive |
| COc1ccc(OC)c(C(=O)c2oc3ccc(Br)cc3c2N)c1 | inactive |
| COc1cc(NC(=O)CCl)ccc(=O)c1 | inactive |
| CC(C)(C)OC(=O)N1C/C(=C\c2cccs2)C(=O)/C(=C/c2cccs2)C1 | inactive |
| Cc1ccc2c(c1)C(C)Cc1c(ncnc1-n1cnc3ccccc31)N2C (configuration not stated) | inactive |
| Cc1cc2c(C(C)C)c(O)c(O)c(C=NCCCCC(=O)O)c2c(O)c1-c1c(C)cc2c(C(C)C)c(O)c(O)c(C=NCCCCC(=O)O)c2c1O | inactive |
| COc1ccc(/C=N/NC(=O)Cn2c(Cc3cccc4ccccc34)nc3ccccc32)cc1 | inactive |
| O=C(Nc1cc(C(F)(F)F)cc(C(F)(F)F)c1)Nc1ccc(OCc2nnc(-c3ccc(Cl)cc3)o2)c(F)c1 | active |

* * *

- Test system: COLO 205 colon
- Run description: NCI-60 one-dose screen, 48 h (100 = growth as untreated, 0 = no growth, -100 = all killed)
- Setup conditions: 10 µM unless noted
About 83,000 compounds went through this panel and 20% of them were active in at least one assay; those are over-represented in the sample as a whole.

| Compound | growth (%) |
| --- | --- |
| COc1cc(OC)c(C(=O)/C=C/c2cccc(C(F)(F)F)c2)c(OC)c1 | 12.9 |
| C=CCOc1ccc(/C(O)=C2\C(=O)C(=O)N(c3nccs3)C2c2ccccc2F)cc1 (configuration not stated) | 104 |
| CCOC(=O)c1cc(/C(=N\O)c2cc(OC)c(OC)c(OC)c2)n2c(C)cccc12 | 21.2 |
| Cc1ccc(Cn2c(-c3cccs3)nc3ccccc32)cc1 | 110 |
| CCc1c(C(=O)Nc2ccc3ccccc3c2)[nH]c(C)c1C(C)=O | 111 |
| CCC(=O)Oc1ccc2c(c1)CC[C@@H]1[C@@H]2CC[C@]2(C)C[C@H](OC(=O)CC)C[C@@H]12 | 118 |
| O=C(/C=C/CN1CCCCC1)Nc1cc2c(Nc3ccc(F)c(Cl)c3F)ncnc2cc1OCCOC(F)F | 24.8 |

* * *

- System: HOP-92 NSCLC
- Run description: NCI-60 one-dose screen, 48 h (100 = growth as untreated, 0 = no growth, -100 = all killed)
- Setup conditions: 10 µM unless noted
This is part of a sample that, as a whole, favours compounds with a hit. Of some 83,000 tested, about 20% had one in any assay.
Lab note: compare growth against 80%. Equal or greater, write condition met. Smaller, write condition not met.

| Compound | Tested target | Answer label |
| --- | --- | --- |
| CC(=O)Oc1cccc(OC(C)=O)c1OC(C)=O | HOP-92 NSCLC | condition met |
| C/C(=N\NC(=O)CC#N)c1cc2cc(Cl)ccc2o1 | HOP-92 NSCLC | condition not met |
| Cn1c(C(N)=O)cc2c1-c1nc(NC3CCCCC3)ncc1CCC2 | HOP-92 NSCLC | condition not met |
| CCCCCC/C=C\CCCCCCCCOc1ccc(CCOP(=O)(O)OCC[N+](C)(C)C)cc1 | HOP-92 NSCLC | condition not met |
| COc1cc(-n2nc(C(=O)Nc3ccc(C(=O)O)cc3)nc2-c2ccccc2)cc(OC)c1OC | HOP-92 NSCLC | condition met |
| Cc1ccc(Nc2ncnc3c2sc2ncccc23)cc1 | HOP-92 NSCLC | condition met |
| Cc1ccc(S(=O)(=O)OCC(=O)Nc2ccc(C(=O)O)c(O)c2)cc1 | HOP-92 NSCLC | condition not met |
| O=[N+]([O-])c1cccc(-c2cc(-c3cc(Br)ccc3O)[nH]n2)c1 | HOP-92 NSCLC | condition not met |
| N=C(N)c1ccc(-c2ccc(-c3ccc(Cl)cc3)o2)nc1 | HOP-92 NSCLC | condition not met |
| CC(=O)Nc1ccc2c(c1)/C(=C\C=C/c1ccc([N+](C)(C)C)cc1)c1ccccc1-2 | HOP-92 NSCLC | condition not met |
| COc1ccc(-c2nc3sccn3c2-c2ccnc(NCCNS(=O)(=O)c3ccc(C(F)(F)F)cc3)n2)cc1 | HOP-92 NSCLC | condition not met |
| COc1ccc(/C=C/C(=O)/C=C/c2cc3ccc(Cl)cc3[nH]c2=O)cc1 | HOP-92 NSCLC | condition met |
| COc1ccc(S(=O)(=O)Nc2cc(/C=C\c3cc(OC)c(OC)c(OC)c3)cc(OC)c2OC)cc1OC | HOP-92 NSCLC | condition not met |
| FC(F)(F)c1cccc(-n2nnc3cnc(Nc4ccc(N5CCCCC5)cc4)nc32)c1 | HOP-92 NSCLC | condition met |
| CN(C)C/C=C/C(=O)Nc1cc2c(Nc3cccc(Cl)c3F)ncnc2cc1OCCOC(F)F | HOP-92 NSCLC | condition not met |
| COc1ccc(NC(=O)CSc2nc3ccccc3c(=O)n2-c2ccccc2C(F)(F)F)c(OC)c1OC | HOP-92 NSCLC | condition not met |
| c1cc(-c2ccc3c(c2)OCO3)n2nccc2n1 | HOP-92 NSCLC | condition met |
| CCCCCCCCCCCCNC(=S)N/N=C/c1ccc(Cl)c(Cl)c1 | HOP-92 NSCLC | condition met |
| COc1ccc(C2CC(c3cccs3)=NN2c2ccc(S(=O)(=O)NC(=O)NCc3cccc(OC)c3)cc2)cc1 (centres undefined) | HOP-92 NSCLC | condition met |

* * *

- Test system: HCT-116 colon
- Run description: NCI-60 one-dose screen, 48 h (100 = growth as untreated, 0 = no growth, -100 = all killed)
- Setup conditions: 10 µM unless noted
About 83,000 compounds went through this panel and 20% of them were active in at least one assay; those are over-represented in the sample as a whole.
Measured growth, listed per entry for reference.

| Molecule | Tested target | growth [%] |
| --- | --- | --- |
| COc1cc(NC(=O)CSc2nc3ccc(C)cc3c(=O)n2-c2ccccc2)cc(OC)c1OC | HCT-116 colon | 87 |
| CCN(C(=O)c1cc2ncccc2[nH]1)[C@H]1CCC[C@@H](NCc2cccc(F)c2)C1 | HCT-116 colon | 111 |
| Nc1ccc(S(=O)(=O)c2ccc(Cl)cc2)cc1 | HCT-116 colon | 97.2 |
| C/C(=C\c1csc(C)n1)[C@@H]1C[C@@H]2O[C@]2(C)CCC[C@H](C)[C@H](O)[C@@H](C)C(=O)C(C)(C)[C@@H](O)CC(=O)N1 | HCT-116 colon | -79.1 |
| COc1cc2nc(N3CCC[C@@H](NC4=CC(=O)c5ccccc5C4=O)C3)nc(N)c2cc1OC | HCT-116 colon | -83.6 |
| COc1ccc(-n2cnc3c(sc4ncc(Cl)cc43)c2=O)cc1 | HCT-116 colon | 54.5 |
| COc1cc(NS(C)(=O)=O)ccc1Nc1c2ccc([N+](=O)[O-])cc2nc2c(C)cccc12 | HCT-116 colon | 22.9 |
| O=C(CC(O)c1ccncc1)c1ccccc1 (stereo not given) | HCT-116 colon | 15.5 |
| COc1ccc(/C(=N\O)c2cc(OC)c(OC)c(OC)c2)c(OC)c1N | HCT-116 colon | 7.66 |
| CC(=O)/C=C/c1cc2cc(Cl)ccc2[nH]c1=O | HCT-116 colon | 48.1 |
